# Test system: THP-1 monocytic leukaemia cells
# ASSAY_OVERVIEW: WST-1 in vitro cytotoxicity, THP-1
# Type: cell-based, human
# STUDY_CONDITIONS: 24 h treatment, WST-1, 0.16–10.00 µM; read-out: IC50±S.E., THP-1
QUANTITY_MEASURED: pIC50
Please express pIC50 as -log10 of the molar concentration.

[[record]]
compound = "CCOc1ncnc2cc[n]([Au])c12.c1ccc(P(c2ccccc2)c2ccccc2)cc1"
quantity_measured = "pIC50"
measured = 6.10

[[record]]
compound = "[Au][n]1ccc2ncnc(OCc3ccccc3)c21.c1ccc(P(c2ccccc2)c2ccccc2)cc1"
quantity_measured = "pIC50"
measured = 5.77

[[record]]
compound = "CC[PH](CC)(CC)[Au][S][C@@H]1O[C@H](COC(C)=O)[C@@H](OC(C)=O)[C@H](OC(C)=O)[C@H]1OC(C)=O [Auranofin, reference compound]"
quantity_measured = "pIC50"
measured = 6.05

[[record]]
compound = "[Au][n]1ccc2ncnc(OCC3CCCO3)c21.c1ccc(P(c2ccccc2)c2ccccc2)cc1"
quantity_measured = "pIC50"
measured = 6.00

[[record]]
compound = "[Au][n]1ccc2ncnc(OCCc3ccccc3)c21.c1ccc(P(c2ccccc2)c2ccccc2)cc1"
quantity_measured = "pIC50"
measured = 5.85


Provide the reported pIC50 (system: THP-1 monocytic leukaemia cells) for CC(C)Oc1ncnc2cc[n]([Au])c12.c1ccc(P(c2ccccc2)c2ccccc2)cc1 [complex 2, [Au(L2)(PPh3)]] 6.10

---

# System: HeLa cervix epitheloid carcinoma cells
# ASSAY_OVERVIEW: MTT in vitro cytotoxicity, HeLa
# Type: cell-based, human
# STUDY_CONDITIONS: 24 h treatment, read-out: IC50±S.E., HeLa
QUANTITY_MEASURED: pIC50
Please express pIC50 as -log10 of the molar concentration.

[[record]]
molecule = "[Au][n]1ccc2ncnc(OCc3ccccc3)c21.c1ccc(P(c2ccccc2)c2ccccc2)cc1 [complex 4]"
measured = 4.84

[[record]]
molecule = "CCOc1ncnc2cc[n]([Au])c12.c1ccc(P(c2ccccc2)c2ccccc2)cc1 [complex 1]"
measured = 4.66


Retrieve pIC50 measured for [Au][n]1ccc2ncnc(OCCc3ccccc3)c21.c1ccc(P(c2ccccc2)c2ccccc2)cc1 [complex 5] and print it. 4.64

Retrieve pIC50 measured for [Au][n]1ccc2ncnc(OCC3CCCO3)c21.c1ccc(P(c2ccccc2)c2ccccc2)cc1 [complex 3] and print it. 4.68

Retrieve pIC50 measured for CC(C)Oc1ncnc2cc[n]([Au])c12.c1ccc(P(c2ccccc2)c2ccccc2)cc1 [complex 2, [Au(L2)(PPh3)]] and print it. 4.80

---

# Test system: HOS osteosarcoma cells
# ASSAY_OVERVIEW: MTT in vitro cytotoxicity, HOS
# Format: cell-based, human
# STUDY_CONDITIONS: 24 h treatment, read-out: IC50±S.E., HOS
QUANTITY_MEASURED: log10(IC50) (log10 of the value in µM)
Would you kindly interpret these values as log10 of IC50 expressed in µM?

Answered cases to consult:
[[record]]
compound = "N.N.[Cl][Pt][Cl] [cisplatin, reference compound]"
measured = 1.31

[[record]]
compound = "CCOc1ncnc2cc[n]([Au])c12.c1ccc(P(c2ccccc2)c2ccccc2)cc1"
measured = 0.52


Retrieve log10(IC50) measured for `[Au][n]1ccc2ncnc(OCCc3ccccc3)c21.c1ccc(P(c2ccccc2)c2ccccc2)cc1` and print it. 0.46

Retrieve log10(IC50) measured for `[Au][n]1ccc2ncnc(OCc3ccccc3)c21.c1ccc(P(c2ccccc2)c2ccccc2)cc1` and print it. 0.26

Retrieve log10(IC50) measured for CC(C)Oc1ncnc2cc[n]([Au])c12.c1ccc(P(c2ccccc2)c2ccccc2)cc1 [complex 2, [Au(L2)(PPh3)]] and print it. -0.05

Retrieve log10(IC50) measured for `[Au][n]1ccc2ncnc(OCC3CCCO3)c21.c1ccc(P(c2ccccc2)c2ccccc2)cc1` and print it. 0.60
